test: Oral PK in rats: plasma concentrations of oxymorphone by LC-MS/MS; details: oxymorphone released, conjugate equivalent to 2 mg/kg freebase oxycodone
Define the label as label 1 when AUC is strictly less than 7 ng·h/mL and as label 0 in all remaining cases.

>  <COMPOUND>
COc1ccc2c3c1O[C@H]1C(OC(=O)c4ccc(O)cc4)=CC[C@@]4(O)[C@@H](C2)N(C)CC[C@]314 [Conjugate 4-OH-Bz-OC]

>  <ASSIGNED CLASS>
label 1

$$$$
>  <COMPOUND>
COc1ccc2c3c1OC1C(OC(=O)C(C)c4cccc(Oc5ccccc5)c4)=CCC4(O)C(C2)N(C)CCC314 (mixture of isomers) [6-Fenoprofen-OC]

>  <ASSIGNED CLASS>
label 1

$$$$
>  <COMPOUND>
COc1ccc2c3c1OC1C(OC(=O)C(C)c4cccc(C(=O)c5ccccc5)c4)=CCC4(O)C(C2)N(C)CCC314 (mixture of isomers) [6-Ketoprofen-OC]

>  <ASSIGNED CLASS>
label 1

$$$$
>  <COMPOUND>
COc1ccc2c3c1O[C@H]1C(OC(=O)/C=C/c4ccccc4)=CC[C@@]4(O)[C@@H](C2)N(C)CC[C@]314 [6-Cinnamate-OC]

>  <ASSIGNED CLASS>
label 0

$$$$
>  <COMPOUND>
COc1ccc2c3c1O[C@H]1C(OC(=O)c4cccc(N)c4)=CC[C@@]4(O)[C@@H](C2)N(C)CC[C@]314 [Conjugate 3-ABz-OC]

>  <ASSIGNED CLASS>
label 1

$$$$
>  <COMPOUND>
COc1ccc2c3c1OC1C(OC(=O)C(C)c4ccc(CC(C)C)cc4)=CCC4(O)C(C2)N(C)CCC314 (mixture of isomers) [Conjugate 6-lbu-OC]

>  <ASSIGNED CLASS>
label 0

$$$$

Task: Just wondering, is AUC of COc1ccc(C(=O)OC2=CC[C@@]3(O)[C@H]4Cc5ccc(OC)c6c5[C@@]3(CCN4C)[C@H]2O6)cc1 [Conjugate 4-MeO-Bz-OC] below 7 ng·h/mL?
Result: label 1

* * *

Examples of compounds with documented percent of OC released follow.
assay: Tamper resistance: percent of OC released under tampering conditions, LC-MS/MS; format: physicochemical; conditions: 1N HCl, RT, 1 hour

>  <COMPOUND>
COc1cc(C(=O)OC2=CC[C@@]3(OC(=O)c4ccc(O)c(OC)c4)[C@H]4Cc5ccc(OC)c6c5[C@@]3(CCN4C)[C@H]2O6)ccc1O [(4-OH-3-MeO-Bz)2-OC]

>  <percent of OC released>
0%

$$$$
>  <COMPOUND>
COc1ccc(C(=O)OC2=CC[C@@]3(O)[C@H]4Cc5ccc(OC)c6c5[C@@]3(CCN4C)[C@H]2O6)cc1 [Conjugate 4-MeO-Bz-OC]

>  <percent of OC released>
<1%

$$$$

Please turn your attention to the following entry.
Please fill in: percent of OC released reported for COc1ccc2c3c1O[C@H]1C(OC(=O)/C=C/c4ccccc4)=CC[C@@]4(OC(=O)/C=C/c5ccccc5)[C@@H](C2)N(C)CC[C@]314 [(Cin)2-OC] = 0%

* * *

experiment: Oral PK in rats: plasma concentrations of released oxycodone by LC-MS/MS; conditions: relative to oxycodone (OC)
Examples of compounds with documented %-tmax of OC follow.
Reply numerically in %, unit not repeated.

Example entries and their recorded answers appear below.
>  <COMPOUND>
COc1ccc2c3c1OC1C(OC(=O)C(C)c4cccc(C(=O)c5ccccc5)c4)=CCC4(O)C(C2)N(C)CCC314 (mixture of isomers)

>  <MEASUREMENT>
83

$$$$
>  <COMPOUND>
COc1ccc2c3c1OC1C(OC(=O)C(C)c4ccc(CC(C)C)cc4)=CCC4(O)C(C2)N(C)CCC314 (mixture of isomers) [Conjugate 6-lbu-OC]

>  <MEASUREMENT>
47

$$$$

Please turn your attention to the following entry.
Please fill in: %-tmax of OC reported for COc1ccc2c3c1OC1C(OC(=O)C(C)c4cccc(Oc5ccccc5)c4)=CCC4(O)C(C2)N(C)CCC314 (mixture of isomers) = 83

* * *

experiment: Oral PK in rats: plasma concentrations of released oxycodone by LC-MS/MS; conditions: relative to oxycodone (OC)
READOUT KIND: %-Cmax of OC (%)
Reply numerically in %, unit not repeated.

Example entries and their recorded answers appear below.
>  <COMPOUND>
COc1ccc2c3c1O[C@H]1C(OC(=O)c4ccc(O)cc4)=CC[C@@]4(O)[C@@H](C2)N(C)CC[C@]314 [Conjugate 4-OH-Bz-OC]

>  <MEASUREMENT>
69

$$$$
>  <COMPOUND>
COc1ccc2c3c1O[C@H]1C(OC(=O)c4cccc(N)c4)=CC[C@@]4(O)[C@@H](C2)N(C)CC[C@]314 [Conjugate 3-ABz-OC]

>  <MEASUREMENT>
96

$$$$
>  <COMPOUND>
COc1ccc2c3c1OC1C(OC(=O)C(C)c4cccc(Oc5ccccc5)c4)=CCC4(O)C(C2)N(C)CCC314 (mixture of isomers) [6-Fenoprofen-OC]

>  <MEASUREMENT>
87

$$$$
>  <COMPOUND>
COc1ccc(C(=O)OC2=CC[C@@]3(O)[C@H]4Cc5ccc(OC)c6c5[C@@]3(CCN4C)[C@H]2O6)cc1 [Conjugate 4-MeO-Bz-OC]

>  <MEASUREMENT>
61

$$$$
>  <COMPOUND>
COc1ccc2c3c1O[C@H]1C(OC(=O)/C=C/c4ccccc4)=CC[C@@]4(O)[C@@H](C2)N(C)CC[C@]314 [6-Cinnamate-OC]

>  <MEASUREMENT>
56

$$$$

Please fill in: %-Cmax of OC reported for COc1ccc2c3c1OC1C(OC(=O)C(C)c4cccc(C(=O)c5ccccc5)c4)=CCC4(O)C(C2)N(C)CCC314 (mixture of isomers) [6-Ketoprofen-OC] = 91

Please fill in: %-Cmax of OC reported for COc1ccc2c3c1OC1C(OC(=O)C(C)c4ccc(CC(C)C)cc4)=CCC4(O)C(C2)N(C)CCC314 (mixture of isomers) [Conjugate 6-lbu-OC] = 62

* * *

experiment: Oral PK in rats: plasma concentrations of oxymorphone by LC-MS/MS; conditions: oxymorphone released, relative to oxycodone (OC)
READOUT KIND: %-tmax of OC (%)
Reply numerically in %, unit not repeated.

>  <COMPOUND>
COc1ccc2c3c1O[C@H]1C(OC(=O)/C=C/c4ccccc4)=CC[C@@]4(O)[C@@H](C2)N(C)CC[C@]314 [6-Cinnamate-OC]

>  <MEASUREMENT>
40

$$$$
>  <COMPOUND>
COc1ccc(C(=O)OC2=CC[C@@]3(O)[C@H]4Cc5ccc(OC)c6c5[C@@]3(CCN4C)[C@H]2O6)cc1 [Conjugate 4-MeO-Bz-OC]

>  <MEASUREMENT>
83

$$$$
>  <COMPOUND>
COc1ccc2c3c1OC1C(OC(=O)C(C)c4cccc(C(=O)c5ccccc5)c4)=CCC4(O)C(C2)N(C)CCC314 (mixture of isomers) [6-Ketoprofen-OC]

>  <MEASUREMENT>
100

$$$$

Please turn your attention to the following entry.
Please fill in: %-tmax of OC reported for COc1ccc2c3c1O[C@H]1C(OC(=O)c4ccc(O)cc4)=CC[C@@]4(O)[C@@H](C2)N(C)CC[C@]314 [Conjugate 4-OH-Bz-OC] = 100

* * *

assay: Oral PK in rats: plasma concentrations of oxymorphone by LC-MS/MS; conditions: oxymorphone released, relative to oxycodone (OC)
READOUT KIND: %-tmax of OC (%)
Reply numerically in %, unit not repeated.

>  <COMPOUND>
COc1ccc2c3c1OC1C(OC(=O)C(C)c4ccc(CC(C)C)cc4)=CCC4(O)C(C2)N(C)CCC314 (mixture of isomers) [Conjugate 6-lbu-OC]

>  <VALUE UNIT>
%

>  <MEASUREMENT>
131

$$$$
>  <COMPOUND>
COc1ccc2c3c1OC1C(OC(=O)C(C)c4cccc(Oc5ccccc5)c4)=CCC4(O)C(C2)N(C)CCC314 (mixture of isomers)

>  <VALUE UNIT>
%

>  <MEASUREMENT>
100

$$$$

Please turn your attention to the following entry.
Please fill in: %-tmax of OC reported for COc1ccc2c3c1O[C@H]1C(OC(=O)c4cccc(N)c4)=CC[C@@]4(O)[C@@H](C2)N(C)CC[C@]314 [Conjugate 3-ABz-OC] = 97

* * *

assay: Oral PK in rats: plasma concentrations of released oxycodone by LC-MS/MS; details: relative to oxycodone (OC)
READOUT KIND: %-tmax of OC
Mention the unit after the number when you answer.

Example entries and their recorded answers appear below.
>  <COMPOUND>
COc1ccc(C(=O)OC2=CC[C@@]3(O)[C@H]4Cc5ccc(OC)c6c5[C@@]3(CCN4C)[C@H]2O6)cc1 [Conjugate 4-MeO-Bz-OC]

>  <%-tmax of OC>
33%

$$$$
>  <COMPOUND>
COc1ccc2c3c1O[C@H]1C(OC(=O)/C=C/c4ccccc4)=CC[C@@]4(O)[C@@H](C2)N(C)CC[C@]314 [6-Cinnamate-OC]

>  <%-tmax of OC>
32%

$$$$
>  <COMPOUND>
COc1ccc2c3c1O[C@H]1C(OC(=O)c4ccc(O)cc4)=CC[C@@]4(O)[C@@H](C2)N(C)CC[C@]314 [Conjugate 4-OH-Bz-OC]

>  <%-tmax of OC>
188%

$$$$

Please fill in: %-tmax of OC reported for COc1ccc2c3c1O[C@H]1C(OC(=O)c4cccc(N)c4)=CC[C@@]4(O)[C@@H](C2)N(C)CC[C@]314 [Conjugate 3-ABz-OC] = 122%
